From: patent US11597704B2

Target: human TLR8 (Homo sapiens, UniProt Q9NR97)
Construct: expressed in transfected cells; host or cells: HEK293
Sequence (Q9NR97 27-1041): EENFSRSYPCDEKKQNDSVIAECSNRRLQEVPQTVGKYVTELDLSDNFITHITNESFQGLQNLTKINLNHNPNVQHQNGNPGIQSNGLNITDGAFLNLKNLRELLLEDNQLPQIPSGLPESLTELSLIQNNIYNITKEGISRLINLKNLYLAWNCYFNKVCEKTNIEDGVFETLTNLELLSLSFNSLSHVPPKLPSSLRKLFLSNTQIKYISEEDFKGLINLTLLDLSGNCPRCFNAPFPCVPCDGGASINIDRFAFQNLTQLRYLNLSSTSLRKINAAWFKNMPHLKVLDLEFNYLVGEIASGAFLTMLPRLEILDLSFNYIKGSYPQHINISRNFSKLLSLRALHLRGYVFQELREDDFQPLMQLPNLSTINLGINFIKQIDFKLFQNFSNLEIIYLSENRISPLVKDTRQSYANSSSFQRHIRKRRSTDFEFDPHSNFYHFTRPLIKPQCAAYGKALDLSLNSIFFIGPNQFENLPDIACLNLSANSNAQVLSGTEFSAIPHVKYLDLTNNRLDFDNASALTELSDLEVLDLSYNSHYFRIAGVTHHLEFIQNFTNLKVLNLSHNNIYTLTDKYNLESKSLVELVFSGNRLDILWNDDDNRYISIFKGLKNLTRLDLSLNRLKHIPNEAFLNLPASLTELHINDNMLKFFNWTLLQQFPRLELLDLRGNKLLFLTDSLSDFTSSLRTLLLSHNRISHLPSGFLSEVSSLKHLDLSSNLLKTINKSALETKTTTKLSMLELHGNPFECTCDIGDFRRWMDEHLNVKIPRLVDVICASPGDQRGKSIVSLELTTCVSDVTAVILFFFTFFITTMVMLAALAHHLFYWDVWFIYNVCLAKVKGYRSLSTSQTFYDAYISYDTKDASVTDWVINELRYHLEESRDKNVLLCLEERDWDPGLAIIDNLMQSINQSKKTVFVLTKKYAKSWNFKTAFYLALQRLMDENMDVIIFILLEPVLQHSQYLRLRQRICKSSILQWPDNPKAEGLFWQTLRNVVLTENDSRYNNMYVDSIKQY
Test: TLR8 NFκB-luc cellular reporter assay in transiently transfected HEK293 cells
Assay type: cell-based
Details: lowest effective concentration; HEK293 cells transfected with wild type TLR8 and NFκB-luc reporter, 6 h incubation
Observed Property: hTLR8-wt (LEC)

Compound	Target Or Test System	hTLR8-wt (LEC)
CCCC[C@H](CO)Nc1nc(N)nc2c(C)ccc(F)c12 [Compound 26]	human TLR8 (Homo sapiens, UniProt Q9NR97)	0.57 µM

Ask | What does the record list as hTLR8-wt (LEC) for CCCC[C@H](CO)Nc1nc(N)nc2cc(C(=O)OC)ccc12 [Compound 18] ?
Reply | 0.57 µM

Ask | Can you handle CCCC[C@H](CO)Nc1nc(N)nc2cc(-c3nnco3)ccc12 [Compound 5] next?
Reply | 0.38 µM

Ask | Can you handle CCCC[C@H](CO)Nc1nc(N)nc2cccc(OC)c12 [Compound 12] next?
Reply | 0.39 µM

Ask | Can you handle CCCC[C@H](CO)Nc1nc(N)nc2cc(F)ccc12 [Compound 13] next?
Reply | 0.04 µM
